studySystem: GPR52 (Homo sapiens)
Sequence (Q9Y2T5 whole entry): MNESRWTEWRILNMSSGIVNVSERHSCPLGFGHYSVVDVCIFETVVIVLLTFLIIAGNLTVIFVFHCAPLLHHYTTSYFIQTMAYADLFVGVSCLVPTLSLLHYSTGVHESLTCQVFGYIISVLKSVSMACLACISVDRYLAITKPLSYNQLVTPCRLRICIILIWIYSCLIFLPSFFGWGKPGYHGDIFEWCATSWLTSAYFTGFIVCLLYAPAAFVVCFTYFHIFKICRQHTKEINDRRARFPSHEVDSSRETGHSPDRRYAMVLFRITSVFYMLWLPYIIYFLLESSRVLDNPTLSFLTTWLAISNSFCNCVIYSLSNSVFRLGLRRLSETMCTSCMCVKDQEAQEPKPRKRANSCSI
experimentDescription: Screening of GPR52 agonists: intracellular cAMP in GPR52 stable expression cells (AlphaScreen cAMP Assay Kit)
Assay type: cell-based
Design: expressed in transfected cells
experimentalSetup: secondary screening at 100-0.1 μM
pEC50: −log10 of the molar value.

# molecule, pEC50
data = [
    ("Cc1ncc2c(n1)N(CCCN1CCNCC1)CCC2Nc1cccc(Oc2cccc(Cl)c2)c1.Cl.Cl.Cl.Cl (stereo not shown)", 5.68),
]
